Listed below: IC50 values for each entry.
# system-tested: IL-17RA/IL17RC dimerization induced by IL-17A (Homo sapiens)
# Sequence (Q16552 24-155): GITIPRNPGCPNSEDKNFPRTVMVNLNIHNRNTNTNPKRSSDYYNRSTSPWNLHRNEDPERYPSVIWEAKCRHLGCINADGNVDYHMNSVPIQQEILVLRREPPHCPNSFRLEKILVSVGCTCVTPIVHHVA
# procedure-details: IL-17RA/IL17RC dimerization assay in response to IL-17A (PathHunter Cytokine Receptor Assay)
# Format: cell-based
# experimental-parameters: IL-17A at EC80; read-out: IC50 in IL-17RA/IL7RC dimerization assay
Residues, ends and D or L forms follow the SMILES beside them.

[[record]]
compound = "CC[C@H](C)[C@H](NC(=O)[C@H](Cc1c[nH]c2ccccc12)NC(=O)[C@H](CC(=O)O)NC(=O)[C@H](Cc1c[nH]c2ccccc12)NC(=O)[C@H](CC(C)C)NC(=O)[C@H](CC(=O)O)NC(=O)[C@H](C)NC(=O)[C@@H]1CCCN1C(=O)[C@@H](NC(=O)[C@@H](NC(=O)[C@@H](NC(=O)[C@H](Cc1c[nH]cn1)NC(=O)[C@@H]1CCCN1C(C)=O)C(C)C)[C@@H](C)O)[C@@H](C)CC)C(=O)N[C@@H](CC(N)=O)C(=O)N[C@@H](CCCCN)C(N)=O [SEQ ID NO: 161] (Ac-PHVTIPADLWDWINK-NH2)"
reading = "< 10 µM"


Sample CC(=O)N[C@H](C(=O)N[C@@H](Cc1c[nH]cn1)C(=O)N[C@H](C(=O)N[C@H](C(=O)N[C@H](C(=O)N1CCC[C@H]1C(=O)N[C@@H](CCC(N)=O)C(=O)N[C@@H](CCC(=O)O)C(=O)N[C@@H](CC(C)C)C(=O)N[C@@H](Cc1c[nH]c2ccccc12)C(=O)N[C@@H](CCC(=O)O)C(=O)N[C@@H](Cc1c[nH]c2ccccc12)C(=O)N[C@H](C(=O)N[C@@H](CCCNC(=N)N)C(=O)N[C@@H](CCCNC(=N)N)C(N)=O)C(C)C)C(C)C)[C@@H](C)O)C(C)C)C(C)C [SEQ ID NO: 224] (Ac-VHVTVPQELWEWVRR-NH2) — what was its IC50? < 10 µM
